Entries and their measured protein stability index follow.
B1: ISL2 (parent)
chain: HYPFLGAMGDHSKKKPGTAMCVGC

- Variants of: B1
- Experiment summary: protein stability index of a GFP-peptide fusion (GPS, HEK-293T) (PSI 1-6); higher = more stable;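 further: lentivirally expressed fusions sorted by FACS into six bins by GFP to DsRed ratio, PSI derived from sequencing read proportions per bin multiplied by bin number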
- Run conditions: c terminus: a fixed tail appended
Quantity measured: protein stability index

{"Mutation": "G17Q", "Recorded number": 3.46}
{"Mutation": "Y2F", "Recorded number": 2.55}
{"Mutation": "Y2N", "Recorded number": 4.08}
{"Mutation": "K14V", "Recorded number": 2.73}
{"Mutation": "G23F", "Recorded number": 2.44}
{"Mutation": "H11P", "Recorded number": 3.16}
{"Mutation": "C24V", "Recorded number": 3.24}
{"Mutation": "M20D", "Recorded number": 3.61}
{"Mutation": "H11V", "Recorded number": 2.39}
{"Mutation": "K13P", "Recorded number": 2.84}
{"Mutation": "F4C", "Recorded number": 3.27}
{"Mutation": "C21Y", "Recorded number": 2.97}
{"Mutation": "P16V", "Recorded number": 2.06}
{"Mutation": "C21W", "Recorded number": 1.91}
{"Mutation": "G6S", "Recorded number": 2.32}
{"Mutation": "P16M", "Recorded number": 2.45}
{"Mutation": "C24K", "Recorded number": 4.12}
